# TARGET_DESC: human Cav2.2 (Homo sapiens, UniProt Q00975)
# Sequence (Q00975 whole entry): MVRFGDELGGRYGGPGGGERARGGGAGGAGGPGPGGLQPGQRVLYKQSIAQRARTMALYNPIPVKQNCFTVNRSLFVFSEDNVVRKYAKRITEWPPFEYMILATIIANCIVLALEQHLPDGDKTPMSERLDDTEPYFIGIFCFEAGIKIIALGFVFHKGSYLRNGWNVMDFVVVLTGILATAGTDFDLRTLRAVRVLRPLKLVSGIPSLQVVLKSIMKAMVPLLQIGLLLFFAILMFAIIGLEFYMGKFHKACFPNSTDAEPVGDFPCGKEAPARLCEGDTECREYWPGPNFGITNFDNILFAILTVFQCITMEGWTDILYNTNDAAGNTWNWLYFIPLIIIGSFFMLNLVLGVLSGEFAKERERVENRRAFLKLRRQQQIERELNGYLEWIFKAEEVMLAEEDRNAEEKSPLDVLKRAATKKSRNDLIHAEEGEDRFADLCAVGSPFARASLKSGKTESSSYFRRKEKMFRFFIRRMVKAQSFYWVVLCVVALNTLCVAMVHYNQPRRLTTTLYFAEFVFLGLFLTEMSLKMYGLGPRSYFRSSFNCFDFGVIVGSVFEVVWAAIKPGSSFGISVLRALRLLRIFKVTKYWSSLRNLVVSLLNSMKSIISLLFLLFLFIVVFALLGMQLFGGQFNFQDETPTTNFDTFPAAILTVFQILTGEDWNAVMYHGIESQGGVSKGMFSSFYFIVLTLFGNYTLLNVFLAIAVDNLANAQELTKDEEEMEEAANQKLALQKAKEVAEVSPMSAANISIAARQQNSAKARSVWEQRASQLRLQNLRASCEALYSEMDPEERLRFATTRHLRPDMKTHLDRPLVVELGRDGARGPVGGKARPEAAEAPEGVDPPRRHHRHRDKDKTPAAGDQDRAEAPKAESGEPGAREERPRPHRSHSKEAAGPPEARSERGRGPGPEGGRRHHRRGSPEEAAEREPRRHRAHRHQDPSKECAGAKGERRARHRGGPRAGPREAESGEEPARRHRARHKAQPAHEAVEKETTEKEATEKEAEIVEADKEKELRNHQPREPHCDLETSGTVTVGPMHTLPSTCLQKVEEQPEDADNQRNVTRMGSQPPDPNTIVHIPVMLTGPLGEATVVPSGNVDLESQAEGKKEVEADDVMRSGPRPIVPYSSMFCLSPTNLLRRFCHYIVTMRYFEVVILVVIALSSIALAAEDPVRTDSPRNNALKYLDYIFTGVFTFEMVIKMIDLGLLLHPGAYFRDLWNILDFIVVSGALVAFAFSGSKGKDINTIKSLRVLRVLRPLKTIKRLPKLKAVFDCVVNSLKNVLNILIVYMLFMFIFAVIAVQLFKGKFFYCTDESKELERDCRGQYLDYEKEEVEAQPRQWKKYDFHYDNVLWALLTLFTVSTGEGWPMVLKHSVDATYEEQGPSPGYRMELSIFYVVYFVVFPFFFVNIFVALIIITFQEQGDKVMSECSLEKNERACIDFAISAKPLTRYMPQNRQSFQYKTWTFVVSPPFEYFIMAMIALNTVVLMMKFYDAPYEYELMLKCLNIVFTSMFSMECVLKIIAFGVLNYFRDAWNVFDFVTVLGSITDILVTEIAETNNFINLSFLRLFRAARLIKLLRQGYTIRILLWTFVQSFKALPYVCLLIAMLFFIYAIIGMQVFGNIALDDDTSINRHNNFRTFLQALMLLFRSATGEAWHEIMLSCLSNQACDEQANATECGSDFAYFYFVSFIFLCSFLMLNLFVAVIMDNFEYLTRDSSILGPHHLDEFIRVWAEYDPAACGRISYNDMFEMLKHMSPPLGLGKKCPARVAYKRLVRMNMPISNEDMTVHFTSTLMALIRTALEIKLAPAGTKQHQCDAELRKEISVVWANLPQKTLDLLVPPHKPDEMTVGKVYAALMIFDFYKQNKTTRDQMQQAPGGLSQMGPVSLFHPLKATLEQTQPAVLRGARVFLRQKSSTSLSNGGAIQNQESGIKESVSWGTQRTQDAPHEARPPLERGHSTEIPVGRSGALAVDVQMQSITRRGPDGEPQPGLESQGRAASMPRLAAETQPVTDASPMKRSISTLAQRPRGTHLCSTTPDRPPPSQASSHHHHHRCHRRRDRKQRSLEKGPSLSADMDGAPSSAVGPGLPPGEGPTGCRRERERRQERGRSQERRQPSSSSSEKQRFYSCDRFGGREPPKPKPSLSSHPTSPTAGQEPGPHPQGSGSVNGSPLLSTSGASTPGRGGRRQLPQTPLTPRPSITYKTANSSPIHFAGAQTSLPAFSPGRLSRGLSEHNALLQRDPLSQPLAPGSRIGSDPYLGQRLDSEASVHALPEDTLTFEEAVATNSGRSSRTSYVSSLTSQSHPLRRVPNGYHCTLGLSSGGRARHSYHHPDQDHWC
# Sequence (P54289 25-946 partner limits assumed): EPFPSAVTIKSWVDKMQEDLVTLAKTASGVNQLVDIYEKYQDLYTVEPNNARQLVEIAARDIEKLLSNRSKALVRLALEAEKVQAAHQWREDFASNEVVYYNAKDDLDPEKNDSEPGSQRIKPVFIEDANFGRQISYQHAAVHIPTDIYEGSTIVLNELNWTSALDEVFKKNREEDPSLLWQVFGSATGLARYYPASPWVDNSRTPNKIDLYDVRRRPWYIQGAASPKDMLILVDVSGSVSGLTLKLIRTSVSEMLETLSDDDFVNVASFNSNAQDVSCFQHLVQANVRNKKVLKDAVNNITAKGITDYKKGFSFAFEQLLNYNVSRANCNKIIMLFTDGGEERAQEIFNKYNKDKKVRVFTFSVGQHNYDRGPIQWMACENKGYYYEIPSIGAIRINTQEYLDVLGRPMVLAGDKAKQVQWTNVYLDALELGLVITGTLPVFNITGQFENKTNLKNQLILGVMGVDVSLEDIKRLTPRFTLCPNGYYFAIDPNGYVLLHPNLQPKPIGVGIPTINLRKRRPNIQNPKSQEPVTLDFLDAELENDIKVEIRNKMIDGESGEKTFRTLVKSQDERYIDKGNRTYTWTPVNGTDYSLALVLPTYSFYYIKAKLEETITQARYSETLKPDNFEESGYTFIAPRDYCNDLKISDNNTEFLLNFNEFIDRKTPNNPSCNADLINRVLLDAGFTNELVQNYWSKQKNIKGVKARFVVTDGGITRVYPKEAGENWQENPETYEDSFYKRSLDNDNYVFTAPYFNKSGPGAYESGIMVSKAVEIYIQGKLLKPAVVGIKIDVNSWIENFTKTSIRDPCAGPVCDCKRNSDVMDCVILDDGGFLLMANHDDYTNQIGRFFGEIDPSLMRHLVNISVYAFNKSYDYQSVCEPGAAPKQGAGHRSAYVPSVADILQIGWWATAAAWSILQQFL
# Sequence (P54289 947-1103 partner limits assumed): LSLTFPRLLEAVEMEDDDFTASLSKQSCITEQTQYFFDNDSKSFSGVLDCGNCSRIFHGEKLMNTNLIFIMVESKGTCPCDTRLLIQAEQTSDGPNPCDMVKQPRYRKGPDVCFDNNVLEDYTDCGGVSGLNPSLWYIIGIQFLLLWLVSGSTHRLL
# Sequence (P54284 whole entry partner): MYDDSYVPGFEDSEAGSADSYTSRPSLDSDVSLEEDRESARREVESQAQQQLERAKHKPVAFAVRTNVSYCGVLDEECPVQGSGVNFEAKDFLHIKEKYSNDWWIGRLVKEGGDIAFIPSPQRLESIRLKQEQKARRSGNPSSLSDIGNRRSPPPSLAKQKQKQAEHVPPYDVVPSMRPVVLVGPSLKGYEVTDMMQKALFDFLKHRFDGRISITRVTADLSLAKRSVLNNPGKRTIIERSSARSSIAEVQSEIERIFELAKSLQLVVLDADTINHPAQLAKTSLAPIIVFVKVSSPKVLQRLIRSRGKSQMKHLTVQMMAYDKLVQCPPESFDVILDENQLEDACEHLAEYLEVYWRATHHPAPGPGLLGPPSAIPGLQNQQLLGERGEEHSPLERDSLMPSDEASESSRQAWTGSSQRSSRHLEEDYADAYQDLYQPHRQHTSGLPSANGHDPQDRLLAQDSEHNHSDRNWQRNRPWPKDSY
# ASSAY_PROTOCOL: Assessment of calcium channel activity using FLIPR (Ca2+ influx in IMR32 cells)
# Assay type: cell-based
# REPORTED_CONDITIONS: 60 minute pre-incubation with compound, 2 μM nifedipine, depolarized with 80 mM KCl
pIC50: −log10 of the molar value.
READOUT: pIC50

Answered cases to consult:
1. Cc1cccc(CN2C[C@@H]3CC[C@H](NC(=O)C(C4CCCCC4)C4CCCCC4)[C@@H]3C2)c1 [Example 61]	5.82
2. CC(C)C[C@@H](C(=O)N[C@@H]1CC[C@H]2CN(Cc3ccccc3)C[C@H]21)N(C)Cc1ccc(F)cc1 [Example 513]	5.67
3. CN[C@@H](CC(C)C)C(=O)N1C[C@H]2CC[C@H](NC(=O)C(c3ccc(F)cc3)c3ccc(F)cc3)[C@H]2C1 [Example 459]	5.79

A. CCN(C(=O)OC(C)(C)C)[C@@H](CC(C)C)C(=O)N[C@H]1CC[C@@H]2CN(Cc3ccccc3)C[C@@H]21 [Example 223]
B. CCC[C@H](NC)C(=O)N[C@H]1CC[C@@H]2CN(S(=O)(=O)c3ccc(F)cc3Cl)C[C@@H]21 [Example 539]
Request: Rank A against B by their pIC50 values and give the higher one. Use the label to indicate which entry you chose.
Result: A
(A: 5.69, B: 5.36)

I. CNC(CC(C)C)C(=O)N1CC2CCC(N(C3CC3)S(=O)(=O)c3cccc(C(F)(F)F)c3)C2C1 (stereo not shown) [Example 559]
II. CCC[C@H](NC)C(=O)N[C@@H]1CC[C@@H]2CN(S(=O)(=O)c3ccc(C(F)(F)F)cc3)C[C@@H]21 [Example 420]
Request: Endpoint returns whichever of I and II has the numerically higher pIC50. Could you answer with the label of the item you picked?
Result: I
(I: 5.77, II: 5.24)

a. O=S(=O)(N[C@H]1CC[C@H]2CN(Cc3cccc(C(F)(F)F)c3)C[C@H]21)c1cccc(C(F)(F)F)c1 (single isomer, unassigned) [Example 186]
b. CCC[C@H](NC(=O)C(C)(C)C)C(=O)N[C@H]1CC[C@@H]2CN(Cc3ccc(C(F)(F)F)cc3)C[C@@H]21 [Example 528]
c. O=C(N[C@H]1CC[C@H]2CN(Cc3cccc(C(F)(F)F)c3)C[C@H]21)C1CCCC1 (relative stereo) [Example 129]
d. CC(C)[C@H](N)CC(=O)N[C@H]1CC[C@@H]2CN(S(=O)(=O)c3cccc(C(F)(F)F)c3)C[C@@H]21 [Example 388]
Request: Please rank these compounds by pIC50 in descending order. Answer by naming the labels in the order asked.
Result: a, c, d, b

P. CCC[C@H](NC(C)C)C(=O)N[C@H]1CC[C@@H]2CN(S(=O)(=O)c3cccc(C(F)(F)F)c3)C[C@@H]21 [Example 483]
Q. CC(C)C[C@H](NS(=O)(=O)C(C)C)C(=O)N[C@@H]1CC[C@H]2CN(Cc3cccc(C(F)(F)F)c3)C[C@H]21 [Example 522]
Request: Which record shows the lower pIC50: the first, P , or the second, Q ? Write the label of whichever entry you select.
Result: Q
